Source listed as PubChem BioAssay (NCI).

tested on: TK-10 renal; experiment: NCI-60 one-dose screen, 48 h; details: 10 µM unless noted
About 83,000 compounds went through this panel and 20% of them were active in at least one assay; those are over-represented in the sample as a whole. The source made the active and inactive calls. The calls were made as follows: active = growth percent below 10; inactive = the rest.
Returns: one label drawn from class 1 = active, class 0 = inactive

For this compound, state the assay outcome: Nc1no[n+]([O-])c1-c1nnc2c(n1)-c1ccccc1C2=O
class 0

For this compound, state the assay outcome: CN1CCN(Cc2ccc(C(=O)Nc3cncc(C#Cc4cnc(N)c5ccccc45)c3)cc2C(F)(F)F)CC1
class 1

For this compound, state the assay outcome: O=c1c2cc(F)cc(Cl)c2sc2c(Cl)nc3ccccc3c12
class 0

---

tested on: SNB-75 CNS; experiment: NCI-60 one-dose screen, 48 h (100 = growth as untreated, 0 = no growth, -100 = all killed); conditions: 10 µM unless noted
The panel holds about 83,000 compounds, 20% with a hit somewhere; the sample as a whole holds those more often.
Ranges used to classify growth: lo (below 40%), mid (40% to below 80%), hi (80% or more)

Reference set (3 entries):
COMPOUND: CCOc1cccc(/C=N/NC(=O)C(=O)Nc2cccc(C(F)(F)F)c2)c1O
CATEGORY: mid
--
COMPOUND: CNCCNc1nc2ccccc2c2c(=O)c3cc(OC)ccc3sc12
CATEGORY: mid
--
COMPOUND: O=C(CSc1ncccc1C(=O)O)Nc1ccc(Oc2ccccc2)cc1
CATEGORY: hi

Assign a bin to COc1ccc(C2Nc3nc(OC)n(C)c(=O)c3N=C3c4ccccc4C(=O)C32)cc1 (configuration not stated)
mid

Assign a bin to O=C(/C=C/c1ccc(Cl)cc1)c1ccc(Nc2nc(NCCO)nc(Nc3ccc(Cl)cc3)n2)cc1
mid

Assign a bin to CN(CCc1ccccc1)C(=S)N(C(=O)c1ccc([N+](=O)[O-])cc1)c1ccc(Cl)cc1
hi

Assign a bin to O=C(Cn1cc(COc2ncnc3c2cnn3-c2ccccc2)nn1)Nc1cccc2ccccc12
mid

---

tested on: RXF 393 renal; assay: NCI-60 one-dose screen, 48 h (100 = growth as untreated, 0 = no growth, -100 = all killed); details: 10 µM unless noted
This is part of a sample that, as a whole, favours compounds with a hit. Of some 83,000 tested, about 20% had one in any assay.
ATTRIBUTE MEASURED: growth (%)
Could you give me the number in %? Just the number is fine.

MOLECULE: CCCCC1COc2cccc3c2N1C=C/C3=C\C(=O)N(C)c1ccccc1 (stereo not given)
ASSAYED TARGET: RXF 393 renal
MEASURED NUMBER: 89.6
//
MOLECULE: O=C(/C=C/c1ccc(C(F)(F)F)cc1)c1ccc(Nc2nc(NCCO)nc(Nc3ccc(Cl)cc3)n2)cc1
ASSAYED TARGET: RXF 393 renal
MEASURED NUMBER: 42.8
//
MOLECULE: COc1cc(/C=C/C(=O)c2c(C)nc3ccccc3c2/C=C/c2ccccc2)cc(OC)c1OC
ASSAYED TARGET: RXF 393 renal
MEASURED NUMBER: -17.2

I am curious: what growth value has been reported for Cc1ccc2c(n1)C(=O)C(Oc1ccc(Br)cc1)=CC2=O ?
104

I am curious: what growth value has been reported for COc1ccccc1N1CCN(C(CNS(=O)(=O)c2ccc(Cl)cc2)c2cccnc2)CC1 (stereo not given) ?
36.3

I am curious: what growth value has been reported for Cc1ccc2sc3c(NCCCNCCO)nc4ccccc4c3c(=O)c2c1 ?
44.5

I am curious: what growth value has been reported for O=C(NC1C(O)OC(CO)C(O)C1O)NS(=O)(=O)c1ccc(Cl)cc1 (stereo not given) ?
115

I am curious: what growth value has been reported for CN(C)CCNc1cc(-c2ccccc2)nc2ccccc12 ?
-91.1

I am curious: what growth value has been reported for O=c1oc2ccc(Cl)cc2c(=O)n1-c1ccc(I)cc1F ?
-5.52

I am curious: what growth value has been reported for FC(F)(F)c1cccc(Nc2nc3ccccc3nc2Nc2cccc(C(F)(F)F)c2)c1 ?
-89.6

I am curious: what growth value has been reported for O=S1(=O)N(Cc2ccccc2)[C@@H](Cc2ccccc2)[C@H](O)[C@H](O)[C@H](Cc2ccccc2)N1Cc1ccccc1 ?
-40.8

I am curious: what growth value has been reported for CCOC(=O)c1c2c(c(C)n1Cc1ccc(OC)cc1)-c1oncc1CC2 ?
88.1

I am curious: what growth value has been reported for CCCN1C(=O)N(CCC)C2C1NN=c1s/c(=C3\C(=O)N(C(C)C)c4ccccc43)c(=O)n12 (stereo not given) ?
12.2

I am curious: what growth value has been reported for O=c1oc2ccc(Br)cc2c(=O)n1-c1ccc(Br)cc1F ?
-11.5

I am curious: what growth value has been reported for O=C(COc1cc(O)c2c(=O)cc(-c3ccccc3)oc2c1)Nc1ccccc1 ?
98.3

I am curious: what growth value has been reported for Clc1ccc(-c2nnc(COc3ccc(C4=NNC(c5ccco5)C4)cc3)o2)cc1 (stereo not given) ?
91.7

I am curious: what growth value has been reported for C=C(C)CCC(C)N1CCC(N2CCC(C(=O)NCCc3ccccc3)CC2)CC1 (stereo not given) ?
47.5
